Reference source: PubChem BioAssay (NCI)

Measured growth values are reported for all entries that follow.
# System: BT-549 breast
# EXPERIMENT SUMMARY: NCI-60 one-dose screen, 48 h (100 = growth as untreated, 0 = no growth, -100 = all killed)
# MEASUREMENT CONTEXT: 10 µM unless noted
The panel holds about 83,000 compounds, 20% with a hit somewhere; the sample as a whole holds those more often.
Give just the number in %; leave the unit off.

In plain terms, COc1cc2c(c(OC)c1OC)-c1cc(I)c(O)cc1[C@@H](NC(C)=O)CC2 has a documented growth of 3.61

The value of growth measured for the compound COc1cc(-c2cc(-c3ccc(Nc4ncnc5cc(Cl)ccc45)cc3)nc(N3CCCCC3)n2)cc(OC)c1OC turned out to be 84
